// merged dataset of Ki values, system = UniProtKB P00734, multiple refs
Lab note: cut-off is 10 µM. Strictly less in Ki is 1. Exactly 10 µM or more is -1.

CC(=N)N1CCC(Oc2ccc(C(=O)N[C@@H](COc3cc(C(=N)N)ccc3CC(=O)C(=O)O)CC(=O)O)cc2)CC1 ... -1
CC[C@H](C)[C@H]1NC(=O)C[C@H](Cc2cccc(CN)c2)NC(=O)[C@@H]2CCCN2C(=O)[C@@H](NC(C)=O)CNC(=O)/C=C/[C@H](Cc2ccc(O)cc2)NC1=O ... -1
CCCCC1(CCCC)C(=O)N2CC(C)=CC(C(=O)NC(CCCCN)C(=O)C(=O)NCCc3ccc(C(N)=O)cc3)N2C1=O (stereo not given) ... 1
O=C(NCc1cccc(Cl)c1)[C@@H]1CCCN1C(=O)CCc1ccccc1 ... -1
N=C(N)c1ccc2oc(C(=O)N3CCN(C(=O)COc4ccccc4OCC(=O)N4CCN(C(=O)c5cc6cc(C(=N)N)ccc6o5)CC4)CC3)cc2c1 ... -1
Nc1ccc(C[C@H](NS(=O)(=O)c2cnccc2N[C@@H](Cc2ccccc2)CN2CCNC(=O)C2)C(=O)N2CCC(CCF)CC2)cc1 ... 1
N=C(N)Nc1ccc(CNC(=O)N2CCN(C(=O)CCCCCCC(=O)N3CCN(C(=O)NCc4ccc(NC(=N)N)cc4)CC3)CC2)cc1 ... -1
COC(=O)COc1ccc(C(=N)N)cc1CN1CC[C@H](NS(=O)(=O)c2ccc3ccc(OC)cc3c2)C1=O ... 1

Below: the item to evaluate.
hey, is Ki for CCCc1nc2cc(OC3CCN(C(C)=N)CC3)ccc2n1Cc1ccc2ccc(C(=N)N)cc2c1 lower than 10 µM or not?
1
